system: HS 578T breast; assay: NCI-60 one-dose screen, 48 h (100 = growth as untreated, 0 = no growth, -100 = all killed); details: 10 µM
The panel holds about 83,000 compounds, 20% with a hit somewhere; the sample as a whole holds those more often.
Items are presented alongside their recorded growth.
ENDPOINT_LABEL: growth (%)

# COMPOUND, ENDPOINT_LABEL, ENDPOINT_RESULT
rows = [
    ("CC(O)COc1ccc(-c2ccccc2)cc1 (stereo not given)", "growth", 106),
    ("CC(=O)CC(=O)N(C)C", "growth", 98.3),
    ("Nc1ncnc2c1nc(N)n2C1OC(CO)C(O)C1O (stereo not given)", "growth", -13.9),
    ("O=C(O)c1ccnc(Br)c1", "growth", 107),
    ("CCCCCCCCCCC1CO1 (stereo not given)", "growth", 118),
    ("O=[N+]([O-])c1ccc(Cl)c(S(=O)(=O)O)c1", "growth", 104),
    ("CCOC(=O)CSc1c([N+](=O)[O-])ncn1C", "growth", 103),
    ("CCCCNC1(C#N)CCN(Cc2ccccc2)CC1", "growth", 101),
    ("CCCCC(=O)c1ccc(OC)cc1", "growth", 95.2),
    ("c1csc(-c2cc(-c3cc(-c4cccs4)[nH]n3)n[nH]2)c1", "growth", 74.6),
    ("CS(=O)CC1=NC(=N)N=C1CS(C)=O (stereo not given)", "growth", 89.9),
    ("NC(C(=O)O)C(O)c1ccco1 (stereo not given)", "growth", 107),
    ("CC(C)C1CCCCC1O (stereo not given)", "growth", 105),
    ("COc1cc2c(cc1OC)[C@H](C(=O)O)[C@@H](c1ccc(OC(C)C)c(OC)c1)N(C)C2=O", "growth", 89.3),
    ("COC(=O)CCCCC1=CCC2C(=O)C=C(O)C2C1 (stereo not given)", "growth", 108),
    ("Cc1ccc(/C(C#N)=C/c2ccc3c(c2)OCO3)cc1", "growth", 83.8),
    ("C#CCSc1nnnn1-c1ccc(Br)c(C)c1", "growth", 78.2),
    ("Cc1cccc(CO)c1", "growth", 101),
    ("Cc1ccc(N)cc1[N+](=O)[O-]", "growth", 113),
    ("Cc1cc(=O)n(-c2ccc(F)cc2)[nH]1", "growth", 102),
    ("Cc1cc(C)c(CC(=O)O)c(C)c1", "growth", 109),
    ("O=C(c1ccc(O)cc1)c1ccc(O)cc1", "growth", 107),
    ("COc1cc([C@@H]2c3cc4c(cc3[C@H](O)[C@H]3COC(=O)[C@H]23)OCO4)cc(OC)c1OC", "growth", 26.9),
    ("CCCCNC(=O)C(=O)NCCCC", "growth", 96.6),
    ("C#CC(C(C)C)N(CCO)CCCC (stereo not given)", "growth", 102),
    ("S=c1[nH]ccn1-c1ccccc1Cl", "growth", 142),
    ("CCCC(=O)Nc1ccc2c(c1)CN1C(=O)c3ccccc3C1=N2", "growth", 119),
    ("COc1cc(C(=O)N/N=C/c2cccc([N+](=O)[O-])c2)cc(OC)c1OC", "growth", 49.3),
    ("CCCCC1(CC)COC(CCC)OC1 (stereo not given)", "growth", 109),
    ("CC1SC(N)=NC1=O (stereo not given)", "growth", 108),
    ("O=C(O)CCCc1ccccc1", "growth", 118),
    ("Cc1cccc([N+](=O)[O-])c1Cl", "growth", 98.1),
    ("COC(=O)c1ccccc1Br", "growth", 113),
    ("CC(=O)OCC1OC(OC2=C(CC=C(C)C)C(=O)c3ccccc3C2=O)C(OC(C)=O)C(OC(C)=O)C1OC(C)=O (stereo not given)", "growth", 18),
    ("O=C1OC[C@H]2[C@H](c3ccc(O)c(O)c3)c3cc(O)c(O)cc3C[C@H]12", "growth", 111),
    ("O=S(=O)(O)c1cc(O)c2c(N=Cc3ccccc3O)c(S(=O)(=O)O)ccc2c1", "growth", 103),
    ("COc1ccccc1NC(=O)C1=C(C)NC(C)=C(C(=O)Nc2ccccc2OC)C1c1cccc([N+](=O)[O-])c1", "growth", 60.9),
    ("CC(=O)OC(OC(C)=O)C1CCCO1 (stereo not given)", "growth", 105),
    ("O=c1cc(-c2ccccc2)[nH]c(=S)[nH]1", "growth", 103),
    ("CCCCCC(C)(CC(=O)O)CC(=O)O", "growth", 107),
    ("c1ccc(Sc2ccccc2)cc1", "growth", 115),
    ("O=C(CCl)Nc1ccc2c(c1)C(=O)c1ccc(NC(=O)CCl)cc1C2=O", "growth", 6.19),
    ("CC1CCCCN1C(=S)Nc1ccc(S(=O)(=O)N2CCCCC2)cc1 (stereo not given)", "growth", 88.9),
    ("c1ccc(Cc2ccccc2)cc1", "growth", 76.6),
    ("O=C(NC1CCCCC1)OCc1c(COC(=O)NC2CCCCC2)c(-c2ccc(Cl)c(Cl)c2)n2c1CCC2", "growth", 39.7),
    ("O=[N+]([O-])c1ccc(N=Nc2ccc(O)c3ccccc23)cc1", "growth", 1.22),
    ("COCCCNC(=O)c1nnn2c1nc(N)c1cc(Cl)ccc12", "growth", 90.4),
    ("COCCOC(=O)c1ccc(C(C)C)cc1", "growth", 117),
    ("CNC(=S)NC(C)(C)C", "growth", 104),
    ("COc1cc(C(N)=O)cc(OC)c1OC", "growth", 106),
]

###

system: OVCAR-3 ovarian; test: NCI-60 one-dose screen, 48 h (100 = growth as untreated, 0 = no growth, -100 = all killed); conditions: 10 µM
This is part of a sample that, as a whole, favours compounds with a hit. Of some 83,000 tested, about 20% had one in any assay.

# MOLECULE, growth, %
data = [
    ("COc1cc2c3cc1Oc1c(OC)c(OC)cc4c1C(Cc1ccc(O)c(c1)Oc1ccc(cc1)CC3N(C)CC2)N(C)CC4 (configuration not stated)", 18.8),
    ("C[N+](C)=c1ccc2nc3c(cc(Nc4ccccc4)c4ccccc43)oc-2c1", -28.6),
    ("COC(=O)Nc1nc2ccc(C(=O)c3cccs3)cc2[nH]1", -7.19),
    ("CC(=O)OCC1CCCO1 (configuration not stated)", 114),
    ("O=c1[nH]cc(Cl)cc1O", 88.3),
    ("N#CCc1ccc([N+](=O)[O-])cc1", 117),
    ("CCCCCCCCCCC1CO1 (configuration not stated)", 111),
    ("CCCCCCCO", 115),
    ("CN(C)CCN(C)CC(C)(C)C(=O)/C=C/c1ccc(Cl)cc1", 10.4),
    ("O=C(Nc1cccc(NC(=O)Nc2cc(C(F)(F)F)ccc2Cl)c1)Nc1cc(C(F)(F)F)ccc1Cl", -5.64),
    ("Cc1ccc(C(=O)c2ccccc2)c(C)c1", 112),
    ("O=C1OC(=O)C2C1C1(Cl)C(Cl)=C(Cl)C2(Cl)C2C(=O)OC(=O)C21 (configuration not stated)", 112),
    ("NNc1ccccc1C(=O)O", 119),
    ("CC(=O)c1ccc2c(ccc3ccccc32)c1", 115),
    ("CCN(CC)c1ccc2nc3ccc(=[N+](CC)CC)cc-3oc2c1", -7.91),
    ("NC(=S)NN=C1CCCC1", 47.6),
    ("C#CCSc1nnnn1-c1ccc(Br)c(C)c1", 106),
]

###

Readings of growth for the listed compounds
tested on: RPMI-8226 leukemia; test: NCI-60 one-dose screen, 48 h (100 = growth as untreated, 0 = no growth, -100 = all killed); conditions: 10 µM
The panel holds about 83,000 compounds, 20% with a hit somewhere; the sample as a whole holds those more often.
ENDPOINT_LABEL: growth (%)

# COMPOUND, ENDPOINT_LABEL, ENDPOINT_RESULT
measured = [
    ("COc1ccc(Oc2c(I)cc(CC(NC(C)=O)C(=O)O)cc2I)cc1 (configuration not stated)", "growth", 74.3),
    ("CCOC(=O)c1ccc(NC(=S)P(=O)(c2ccccc2)c2ccccc2)cc1", "growth", 64.4),
    ("COC(=O)Nc1cccc(Cl)c1OC", "growth", 99.3),
    ("CCC/C=C(\\C)C(C)(C#N)C(=O)OCC (configuration not stated)", "growth", 95.1),
    ("N#CC1(Nc2ccc3c4c(cccc24)CC3)CCCCC1", "growth", 77),
    ("CCCC(=O)Nc1ccc2c(c1)CN1C(=O)c3ccccc3C1=N2", "growth", 106),
    ("O=C(Cc1nc2ccc([N+](=O)[O-])cc2nc1CC(=O)c1cccnc1)c1cccnc1", "growth", 94.5),
    ("Cc1ccc(C)n1-c1ccsc1C(=O)NNC(=O)CCl", "growth", 84.4),
    ("C=C[Si](OC(C)=O)(OC(C)=O)OC(C)=O", "growth", 95.9),
    ("COc1cc(CN)ccc1O", "growth", 81),
    ("OCc1ccc(-c2ccc(-c3ccc(CO)s3)o2)s1", "growth", -22.5),
    ("CC1CC(O)C2C3(C)CCCC2(COC3=O)C12CCC1(CCOC1=O)O2 (configuration not stated)", "growth", 117),
    ("CCN1C(=O)/C(=C/C=C/N(C)c2ccccc2)SC1=S", "growth", 86.8),
    ("COc1cc2c3c(n(C)c(=O)c2cc1OC)-c1cc2c(cc1C3=O)OCO2", "growth", 48.2),
    ("Cc1cc(NC(=O)CSCC(=O)O)no1", "growth", 120),
    ("CC1(c2ccccc2)NC(=O)NC1=O (configuration not stated)", "growth", 105),
    ("O=C(Nc1cccc(NC(=O)Nc2cc(C(F)(F)F)ccc2Cl)c1)Nc1cc(C(F)(F)F)ccc1Cl", "growth", -14.5),
    ("Cc1ccc(CCCC(=O)O)c(C)c1", "growth", 97.8),
    ("CC(=O)c1ccc(C)c(N)c1", "growth", 101),
    ("CC(=O)Oc1ccc(Br)cc1C(=O)O", "growth", 99.5),
    ("NNc1ccccc1C(=O)O", "growth", 112),
    ("Nc1ccc(N=Nc2ccc(O)cc2)c(N)n1", "growth", 38.1),
    ("COc1ccc(-c2cc(-c3cc(-c4ccc(OC)cc4)nc(N)n3)nc(N)n2)cc1", "growth", 99.5),
    ("Oc1ccc2c(c1)OCC1(O)Cc3cc(O)c(O)cc3C21 (configuration not stated)", "growth", 62.5),
    ("CCOc1ccccc1/C=N/Nc1nc2ccccc2o1", "growth", 105),
    ("CCN(CC)c1ccc2nc3ccc(=[N+](CC)CC)cc-3oc2c1", "growth", 6.38),
    ("CC[N+](C)(CC)CCO", "growth", 102),
    ("CN(C)c1ccc(S(=O)(=O)O)cc1", "growth", 95.6),
    ("O=C(O)CCCc1ccccc1", "growth", 110),
    ("CCc1nc(N)nc(N)c1-c1ccc(Cl)cc1", "growth", 102),
    ("CCOC(=O)c1cc2cccc(OC)c2oc1=O", "growth", 95.4),
    ("CCC(C#N)(CC)c1ccccc1", "growth", 104),
    ("C/C(=N/NC(N)=O)c1ccco1", "growth", 118),
    ("COc1cc(C2NC(=O)C(C#N)=C(Nc3cccc(C)c3)S2)ccc1O (configuration not stated)", "growth", 81.4),
    ("O=C(CCNNC(=O)c1ccncc1)NCc1ccccc1", "growth", 87.2),
    ("COC(=O)c1ccccc1N(C)C", "growth", 100),
    ("C=CCCCCCCCCCOC(C)=O", "growth", 101),
    ("O=C(Nc1ccccc1C(=O)NCC1CC1)c1cccs1", "growth", 97.4),
    ("CC1OC(Oc2c(-c3ccc(O)c(O)c3)oc3cc(O)cc(O)c3c2=O)C(O)C(O)C1O (configuration not stated)", "growth", 105),
    ("CC(=O)OCCC(C)CCC=C(C)C (configuration not stated)", "growth", 95),
    ("O=[N+]([O-])c1cccc2nsnc12", "growth", 104),
    ("COc1ccccc1C1OC2=Nc3cc(C)c(C)cc3NC2C1=O (configuration not stated)", "growth", 93.5),
]
